target: activated rat MMP13 (rat, UniProt P23097 99-466); experiment: cell-based or functional assay
endpoint: IC50, rat fluorogenic peptide assay (nM)
Hi! Could you send only the number? It should be in nM, unit omitted.

Some solved cases for reference:
{"binder": "C0101PMP062C02 (VHH, Profile 2 Nanobody; also called C0101062C02) VHH: EVQLVESGGALVRPGGSLRLSCAASGFAFSAAYMSWVRQAPGRGLEWVSSISDDGSKTYYADSVKGRFTISRDNAKNTVYLQMNNLKPDDTAVYYCNTGYGATTTRPGRYWGQGTQVTVSS", "IC50, rat fluorogenic peptide assay, nM": 1.1}
{"binder": "C0101PMP059F06 (VHH, Profile 2 Nanobody) VHH: EVQLVESEGGTVEPGESLRLACAAPGPGIRTNFMAWYRQAPEKEREMVASISRDGSTHYADSVKGRFTISSDNATSTFYLQMNSLQVEDTAVYYCATDPHILHNDRAGAFLVEDYDHWGQGTQVTVSS", "IC50, rat fluorogenic peptide assay, nM": 38.9}
{"binder": "C0101PMP525C04 (VHH, Profile 2 Nanobody) VHH: DVQLVESGGGLVQPGGSLRLSCAGSGSIFSGNAMGWYRQAPGKQRELVAAITSGGVTNYADSVKGRFTISRDNSKNTVYLQMNSLRPEDTAVYYCAADIRYPTGLVGDYWGQGTLVTVSS", "IC50, rat fluorogenic peptide assay, nM": 157}
{"binder": "C0101PMP519E04 (VHH, Profile 2 Nanobody) VHH: DVQLVESGGGLVQPGGSLRLSCVASGPTFSDYAMGWFRQAPGKEREFVAAISWSGGSTYYADSVKGRFTISRDNSKNTVYLQMNSLRPEDTAVYYCTAARGGGYRASGGPLSEYNYWGQGTLVTVSS", "IC50, rat fluorogenic peptide assay, nM": 3}
{"binder": "C0101PMP513C04 (VHH) VHH: DVQLVESGGGLVQPGGSLRLSCAASGRTFSRYVMGWFRQAPGKEREFVAAINWSSGSTYYADSVKGRFTISRDNSKNTVYLQMNSLRPEDTAVYYCAADRRVYYDTYPNLRGYDYWGQGTLVTVSS", "IC50, rat fluorogenic peptide assay, nM": 16.2}

Enquiry: In one line, give reported IC50, rat fluorogenic peptide assay of the entry C0101PMP080A01 (VHH) VHH: EVQLVESGGGLVQPGGSLRLSCAASGFTLAYYSIGWFRQAPGKEREGVSCISSGIDGSTYYADSVKGRFTISRDNAKNTMYLQMNNLKPEDTGVYYCAADPSHYYSEYDCGYYGMDYWGKGTLVTVSS .
Return: 4.2

Enquiry: Find the measured IC50, rat fluorogenic peptide assay of C0101PMP529C12 (VHH, Profile 2 Nanobody; also called C0101529C12) VHH: DVQLVESGGGLVQPGGSLRLSCVASGSIFSINAMGWYRQAPGKQRELVAAISSGGSTYYADSVKGRFTISRDNSKNTVYLQMNSLRPEDTAVYYCNAAVDASRGLPYELYYYWGQGTLVTVSS and report it.
Return: 0.2

Enquiry: Specify reported IC50, rat fluorogenic peptide assay for the binder shown: C0101PMP529G11 (VHH, Profile 2 Nanobody) VHH: DVQLVESGGGLVQPGGSLRLSCAASGSIFRINAMGWYRQAPGKQRELVAAIISGGTTYYADSVKGRFTISRDNSKNTVYLQMNSLRPEDTAVYYCYADIGWPYVLDYDFWGQGTLVTVSS
Return: 80.6

Enquiry: Supply reported IC50, rat fluorogenic peptide assay belonging to this binder: C0101PMP517A01 (VHH, Profile 2 Nanobody; also called C0101517A01; C010100087 (parental)) VHH: DVQLVESGGGLVQPGGSLRLSCAASGRTFSSYAMGWFRQAPGKEREFVAAISWSGGSTYYADSVKGRFTISRDNSKNTVYLQMNSLRPEDTAVYYCTAALAVYGPNRYRYGPVGEYNYWGQGTLVTVSS
Return: 2.1

Enquiry: Read the entry C0101PMP063F01 (VHH, Profile 2 Nanobody) VHH: EVQLVESGGGLVQPGGSLRLSCSASTGIFRINTMGWHRQAPGKQRDLVATFTSDDNTKYADSVKGRFTISRDNAENTVYLQMNDLKPEDTAVYYCHATTVMYDSNSPDYWGQGTQVTVSS and write its reported IC50, rat fluorogenic peptide assay.
Return: 20.2
